Each entry below carries its recorded ED50.
Test system: Rattus norvegicus
Assay: Antiinflammatory activity in po dosed Wistar rat assessed as inhibition of carrageenan-induced paw edema measured 3 hrs post carrageenan challenge
Format: functional
// return numeric value only (unit: µmol/kg, not printed)

The reported value for c1ccc(Nc2c(-c3ccncc3)nc3ccccn23)cc1 in terms of ED50 is 11.5

***
The reported value for Cc1ccc(-c2cc(C(F)(F)F)nn2-c2ccc(S(N)(=O)=O)cc2)cc1 [CELECOXIB] in terms of ED50 is 87.7

The reported value for c1ccc(Nc2c(-c3ccccc3)nc3ccccn23)cc1 in terms of ED50 is 14.5

The reported value for COc1ccc(Nc2c(-c3ccc(S(C)(=O)=O)cc3)nc3ccccn23)cc1 in terms of ED50 is 8.7

###

Biological target: Prostaglandin G/H synthase 2 (Homo sapiens, UniProt P35354)
Sequence (P35354 whole entry): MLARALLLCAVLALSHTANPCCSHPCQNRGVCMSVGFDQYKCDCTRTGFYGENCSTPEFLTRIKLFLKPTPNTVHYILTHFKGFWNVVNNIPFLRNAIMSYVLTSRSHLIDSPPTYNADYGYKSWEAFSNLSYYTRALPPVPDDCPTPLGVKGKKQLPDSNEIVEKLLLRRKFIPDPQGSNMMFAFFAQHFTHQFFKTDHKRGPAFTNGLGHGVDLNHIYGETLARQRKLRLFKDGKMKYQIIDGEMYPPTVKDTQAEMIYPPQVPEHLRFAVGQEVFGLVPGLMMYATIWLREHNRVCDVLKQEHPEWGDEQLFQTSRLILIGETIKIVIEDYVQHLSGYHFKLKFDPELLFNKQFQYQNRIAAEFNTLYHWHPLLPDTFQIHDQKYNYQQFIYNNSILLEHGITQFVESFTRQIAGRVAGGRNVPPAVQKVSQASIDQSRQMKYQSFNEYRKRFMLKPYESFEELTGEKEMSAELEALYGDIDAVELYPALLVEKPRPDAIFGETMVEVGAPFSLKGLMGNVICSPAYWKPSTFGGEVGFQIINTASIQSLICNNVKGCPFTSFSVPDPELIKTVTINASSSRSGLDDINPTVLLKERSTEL
Test: Inhibition of PGHS2 in human whole blood assessed as inhibition of TXB2 production by radioimmunoassay
Readout label: pIC50
Please note pIC50 is a logarithmic value: minus log10 of concentration in mol/L. Answer with that number alone.

Per the reported Prostaglandin G/H synthase 2 (Homo sapiens, UniProt P35354) data, COc1ccc(Nc2c(-c3ccc(S(C)(=O)=O)cc3)nc3ccccn23)cc1 has pIC50 of 5.55

Proceeding to the next molecule to report its pIC50.
Per the reported Prostaglandin G/H synthase 2 (Homo sapiens, UniProt P35354) data, c1ccc(Nc2c(-c3ccccn3)nc3ccccn23)cc1 has pIC50 of 4.73

###

Tested on: Rattus norvegicus
Assay: Antihyperalgesic activity in Wistar rat assessed as inhibition of capsaicin-induced thermal hyperalgesia at 100 umol/kg, po
Format: functional, organism-based
Active and inactive are the calls of the source. The calls are words filed in the database; no cut-off is given here.
Give one outcome, nothing more. List: TRUE (active), FALSE (inactive)

**Q:** Assay outcome for CS(=O)(=O)c1ccc(Nc2c(-c3ccncc3)nc3ccccn23)cc1 : what was it?
**A:** TRUE

**Q:** Assay outcome for CS(=O)(=O)c1ccc(-c2nc3ccccn3c2Nc2ccccc2)cc1 : what was it?
**A:** FALSE

**Q:** Assay outcome for c1ccc(Nc2c(-c3ccncc3)nc3ccccn23)cc1 : what was it?
**A:** TRUE

**Q:** Assay outcome for COc1ccc(Nc2c(-c3ccc(S(C)(=O)=O)cc3)nc3ccccn23)cc1 : what was it?
**A:** FALSE

**Q:** Assay outcome for CS(=O)(=O)c1ccc(Nc2c(-c3ccccn3)nc3ccccn23)cc1 : what was it?
**A:** TRUE

**Q:** Assay outcome for CS(=O)(=O)c1ccc(-c2nc3ccccn3c2Nc2ccccn2)cc1 : what was it?
**A:** TRUE

**Q:** Assay outcome for c1ccc(Nc2c(-c3ccccc3)nc3ccccn23)cc1 : what was it?
**A:** TRUE

**Q:** Assay outcome for c1ccc(Nc2c(-c3ccccn3)nc3ccccn23)cc1 : what was it?
**A:** TRUE

Origin of the recorded values: ChEMBL document CHEMBL1139334
